# system: S. aureus DnaE (DNA polymerase III α-subunit homolog from Staphylococcus aureus) (Staphylococcus aureus, UniProt Q5HF71)
# Construct: SaDnaE (S. aureus DnaE residues 1-1065); 6xHis (N); made in house; host or cells: E. coli BL21-AI
# test-protocol: biochemical
# Format: biochemical
# conditions: S. aureus DnaE IC50
# Description: Plasmids encoding EcDnaE (E. coli DnaE residues 1-1160) and SaDnaE (S. aureus DnaE residues 1-1065) with 6×His N-terminal tags, were overexpressed in BL21(DE3) and BL21-AI cells (Invitrogen), respectively. Cells were grown in LB media to an OD ˜0.45 pelleted and then resuspended in Minimal Media, as described in Pryor et al. (1997, Protein Expr Purif. 10:309-19), and inducer (0.4 mM IPTG or 0.2% arabinose) for 21 hours at 18° C. at 220 rpm. […]
Answer each item with its documented IC50.

Task: Please look up its IC50: CO[C@H]1C[C@H]2C=C[C@H]3[C@H]4O[C@]2(/C(C)=C/[C@@H](C)[C@@H]([C@@H](C)O)OC1=O)[C@@H]3[C@H](O)[C@@H](C)[C@H]4OC(=O)c1[nH]c(Br)c(Br)c1Br
Result: 4.12 µM

Task: Bench note: what IC50 did CO[C@H]1C[C@H]2C=CC3C4[C@H](OC(=O)C(=O)OCCN5CCN(C)CC5)[C@@H](C)[C@@H](OC(=O)c5ccc[nH]5)[C@@H]3O[C@]42/C(C)=C/[C@@H](C)[C@@H]([C@@H](C)OC(=O)C(=O)OCCN2CCN(C)CC2)OC1=O.O=C(O)C(F)(F)F show?
Result: < 0.00585 µM

Task: Field request: IC50 | item: COC(=O)O[C@H](C)[C@H]1OC(=O)[C@@H](OC)CC2C=C[C@H]3[C@H]4O[C@]2(/C(C)=C/[C@H]1C)[C@@H]3[C@H](O)[C@@H](C)[C@H]4OC(=O)c1ccc[nH]1 (stereo partly shown)
Result: < 0.0105 µM

Below: the item to evaluate.
Task: Fill blank: measured IC50 of the compound CO[C@H]1C[C@H]2C=CC3C4[C@H](O)[C@@H](C)[C@@H](OC(=O)c5ccc[nH]5)[C@@H]3O[C@]42/C(C)=C/[C@@H](C)[C@@H]([C@@H](C)OC(=O)C(=O)OCCCN(C)C)OC1=O.O=C(O)C(F)(F)F is ____.
Result: < 0.00763 µM

----------
# system: E. coli DnaE (DNA polymerase III α-subunit from Escherichia coli) (Escherichia coli, UniProt P10443)
# Construct: EcDnaE (E. coli DnaE residues 1-1160); 6xHis (N); made in house; host or cells: E. coli BL21(DE3)
# Sequence (P10443 whole entry, the tested form may be a part): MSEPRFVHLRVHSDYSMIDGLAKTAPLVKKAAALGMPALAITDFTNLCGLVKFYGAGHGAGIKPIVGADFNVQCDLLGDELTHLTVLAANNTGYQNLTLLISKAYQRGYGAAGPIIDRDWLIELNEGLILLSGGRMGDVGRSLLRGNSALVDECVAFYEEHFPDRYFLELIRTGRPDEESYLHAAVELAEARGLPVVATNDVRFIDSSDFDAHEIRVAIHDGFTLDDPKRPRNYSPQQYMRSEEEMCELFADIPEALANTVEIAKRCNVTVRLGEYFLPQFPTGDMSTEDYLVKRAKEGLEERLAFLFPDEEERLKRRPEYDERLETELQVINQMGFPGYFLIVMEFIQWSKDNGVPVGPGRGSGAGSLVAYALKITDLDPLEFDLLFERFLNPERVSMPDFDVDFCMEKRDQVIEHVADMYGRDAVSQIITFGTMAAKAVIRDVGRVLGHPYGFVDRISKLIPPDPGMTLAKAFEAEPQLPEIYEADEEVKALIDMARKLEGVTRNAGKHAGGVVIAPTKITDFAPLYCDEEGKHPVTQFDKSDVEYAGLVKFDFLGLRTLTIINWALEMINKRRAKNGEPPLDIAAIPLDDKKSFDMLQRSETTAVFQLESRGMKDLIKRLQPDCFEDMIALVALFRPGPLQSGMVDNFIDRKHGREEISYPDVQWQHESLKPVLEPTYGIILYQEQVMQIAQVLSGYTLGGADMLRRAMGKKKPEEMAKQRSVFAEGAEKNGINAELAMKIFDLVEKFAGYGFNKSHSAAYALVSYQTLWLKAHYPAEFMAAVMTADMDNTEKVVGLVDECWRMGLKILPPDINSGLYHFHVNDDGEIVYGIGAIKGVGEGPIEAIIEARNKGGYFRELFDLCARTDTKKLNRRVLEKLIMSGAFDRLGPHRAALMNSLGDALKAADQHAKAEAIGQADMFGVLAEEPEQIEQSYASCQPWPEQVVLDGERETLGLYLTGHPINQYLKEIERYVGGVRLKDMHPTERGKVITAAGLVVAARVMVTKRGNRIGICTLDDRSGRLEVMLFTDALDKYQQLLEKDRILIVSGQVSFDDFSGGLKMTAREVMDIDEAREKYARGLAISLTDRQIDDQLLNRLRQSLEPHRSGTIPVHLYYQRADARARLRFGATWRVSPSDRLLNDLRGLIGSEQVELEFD
# test-protocol: In vitro DnaE single enzyme assay (E. coli)
# Assay type: biochemical
# conditions: read-out: E. coli DnaE IC50 (converted)
In plain terms, low IC50, meaning strictly below 50 µM, gives yes (1), and everything else gives no (0).

For orientation, consider the following solved cases.
Task: Consider the molecule CO[C@H]1C[C@H]2C=C[C@H]3[C@H]4O[C@]2(/C(C)=C/[C@@H](C)[C@@H]([C@@H](C)O)OC1=O)[C@@H]3[C@H](O)C(C)[C@H]4C#N (stereo partly drawn) . Is its IC50 strictly less than 50 µM?
Result: no (0)

Task: Decide: IC50 of C=C1C[C@@H]2C[C@H](OC)C(=O)O[C@H]([C@@H](C)O)[C@H](C)/C=C(\C)[C@]23O[C@H]2[C@H](OC(=O)c4ccc[nH]4)[C@H](C)[C@@H](O)[C@@H]3[C@@H]12 strictly below 50 µM?
Result: no (0)

Task: Threshold test, IC50 < 50 µM: CO[C@H]1C[C@H]2C=C[C@H]3[C@H]4O[C@]2(/C(C)=C/[C@@H](C)[C@@H]([C@@H](C)OC(=O)OCC(CO)CO)OC1=O)[C@@H]3[C@H](O)[C@@H](C)[C@H]4OC(=O)c1ccc[nH]1
Result: yes (1)

***
Task: Confirm or reject: IC50 of CO[C@H]1C[C@H]2C=C[C@H]3[C@H]4O[C@]2(/C(C)=C/[C@@H](C)[C@@H]([C@@H](C)O)OC1=O)[C@@H]3[C@H](O)[C@@H](C)[C@H]4OC(=O)c1ccc(Br)[nH]1 lies strictly below 50 µM
Result: no (0)

Task: Say whether its IC50 is strictly beneath 50 µM. Entry: C=CC[C@H]1OC(=O)[C@@H](OC)C[C@H]2C=C[C@H]3[C@H]4O[C@]2(/C(C)=C/[C@H]1C)[C@@H]3[C@H](O)[C@@H](C)[C@H]4OC(=O)c1ccc[nH]1
Result: yes (1)

Task: Dear reviewer, please state whether C=CC[C@@H]1C(C)[C@@H](O)[C@@H]2[C@H]3C=C[C@@H]4C[C@H](OC)C(=O)O[C@H]([C@@H](C)O)[C@H](C)/C=C(\C)[C@@]24O[C@H]31 (stereo partly drawn) has IC50 strictly beneath 50 µM.
Result: no (0)

Task: Lab log: compare recorded IC50 with 50 µM; is it strictly lower for COC(=O)O[C@H](C)[C@H]1OC(=O)[C@@H](OC)CC2C=C[C@H]3[C@H]4O[C@]2(/C(C)=C/[C@H]1C)[C@@H]3[C@H](O)[C@@H](C)[C@H]4OC(=O)c1ccc[nH]1 (stereo partly drawn) ?
Result: no (0)

Task: State whether 50 µM exceeds IC50 recorded for CO[C@H]1C[C@H]2C=CC3C4[C@H](OC(=O)C(=O)OCCN5CCN(C)CC5)[C@@H](C)[C@@H](OC(=O)c5ccc[nH]5)[C@@H]3O[C@]42/C(C)=C/[C@@H](C)[C@@H]([C@@H](C)OC(=O)C(=O)OCCN2CCN(C)CC2)OC1=O.O=C(O)C(F)(F)F .
Result: yes (1)

----------
# system: E. coli DnaE (DNA polymerase III α-subunit from Escherichia coli) (Escherichia coli)
# Construct: EcDnaE (E. coli DnaE residues 1-1160); 6xHis (N); made in house; host or cells: E. coli BL21(DE3)
# test-protocol: In vitro DnaE single enzyme assay (E. coli)
# Format: biochemical
# conditions: E. coli DnaE IC50
property-name: IC50

Task: Quick check: IC50 of CO[C@H]1C[C@H]2C=C[C@H]3[C@H]4O[C@]2(/C(C)=C/[C@@H](C)[C@@H]([C@@H](C)OCSC)OC1=O)[C@@H]3C(=O)[C@@H](C)[C@H]4OC(=O)c1ccc[nH]1 ?
Result: 36.6 µM

Task: Fill in the blank: the reported IC50 of CO[C@H]1C[C@H]2C=C[C@H]3[C@H]4O[C@]2(/C(C)=C/[C@@H](C)[C@H](C)OC1=O)[C@@H]3[C@H](O)[C@@H](C)[C@H]4OC(=O)c1ccc[nH]1 is ____.
Result: > 206 µM

Task: Would you mind telling me what IC50 value was observed for CO[C@H]1C[C@H]2C=C[C@H]3[C@H]4O[C@]2(/C(C)=C/[C@@H](C)[C@@H]([C@@H](C)OC(=O)c2ccccc2)OC1=O)[C@@H]3[C@H](O)[C@@H](C)[C@H]4OC(=O)c1ccc[nH]1 ?
Result: 12.9 µM

Alright, here's another compound for you.
Task: Returns the measured IC50 for the input compound. Input: CO[C@H]1CC2C=C[C@H]3[C@H]4O[C@]2(/C(C)=C/[C@@H](C)[C@@H]([C@@H](C)OC(=O)NCC(N)=O)OC1=O)[C@@H]3[C@H](O)[C@@H](C)[C@H]4OC(=O)c1ccc[nH]1 (stereo partly shown)
Result: 97.5 µM

----------
# system: S. aureus DnaE (DNA polymerase III α-subunit homolog from Staphylococcus aureus) (Staphylococcus aureus, UniProt Q5HF71)
# Construct: SaDnaE (S. aureus DnaE residues 1-1065); 6xHis (N); made in house; host or cells: E. coli BL21-AI
# Sequence (Q5HF71 1-1065): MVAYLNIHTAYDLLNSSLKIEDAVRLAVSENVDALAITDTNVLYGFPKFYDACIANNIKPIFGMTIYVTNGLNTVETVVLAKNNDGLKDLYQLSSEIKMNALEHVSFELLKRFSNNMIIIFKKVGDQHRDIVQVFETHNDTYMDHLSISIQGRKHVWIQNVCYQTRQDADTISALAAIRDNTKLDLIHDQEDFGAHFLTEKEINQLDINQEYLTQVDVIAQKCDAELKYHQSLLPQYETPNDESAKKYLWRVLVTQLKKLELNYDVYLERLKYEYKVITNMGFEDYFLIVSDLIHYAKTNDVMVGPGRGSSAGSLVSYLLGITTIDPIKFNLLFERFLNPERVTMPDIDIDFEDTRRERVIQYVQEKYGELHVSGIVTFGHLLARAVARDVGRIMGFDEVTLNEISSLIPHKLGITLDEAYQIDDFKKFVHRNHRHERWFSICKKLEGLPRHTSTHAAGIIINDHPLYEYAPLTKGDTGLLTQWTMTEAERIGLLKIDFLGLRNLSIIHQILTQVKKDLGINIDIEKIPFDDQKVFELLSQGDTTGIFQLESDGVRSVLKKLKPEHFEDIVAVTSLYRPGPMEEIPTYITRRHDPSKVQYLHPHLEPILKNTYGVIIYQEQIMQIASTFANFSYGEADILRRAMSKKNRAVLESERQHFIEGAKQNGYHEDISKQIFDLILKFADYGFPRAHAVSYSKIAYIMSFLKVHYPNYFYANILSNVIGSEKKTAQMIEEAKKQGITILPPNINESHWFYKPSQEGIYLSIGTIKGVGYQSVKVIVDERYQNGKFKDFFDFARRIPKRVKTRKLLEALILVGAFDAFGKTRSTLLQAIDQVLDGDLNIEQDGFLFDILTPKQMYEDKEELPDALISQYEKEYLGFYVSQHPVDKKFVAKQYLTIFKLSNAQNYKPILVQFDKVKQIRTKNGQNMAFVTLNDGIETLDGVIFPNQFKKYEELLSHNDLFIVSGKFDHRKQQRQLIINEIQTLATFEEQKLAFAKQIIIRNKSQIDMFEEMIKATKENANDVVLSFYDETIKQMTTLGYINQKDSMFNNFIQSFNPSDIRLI
# test-protocol: biochemical
# Type: biochemical
# conditions: S. aureus DnaE IC50
property-name: IC50 (nM)
One number for each entry, in nM.

Task: Need IC50 of CO[C@H]1CC2C=C[C@H]3[C@H]4O[C@]2(/C(C)=C/[C@@H](C)[C@@H](C(C)O)OC1=O)[C@@H]3[C@H](O)[C@@H](C)[C@H]4OC(=O)c1cc(-c2cccn2C(=O)OC(C)(C)C)c[nH]1 (some centres unmarked) [Example 45] , thanks.
Result: 2200

Lab note: next compound to report on.
Task: Using the record for CCCNC(=O)O[C@H](C)[C@H]1OC(=O)[C@@H](OC)C[C@H]2C=C[C@H]3[C@H]4O[C@]2(/C(C)=C/[C@H]1C)[C@@H]3[C@H](O)[C@@H](C)[C@H]4OC(=O)c1ccc[nH]1 [Example 2] , report its IC50.
Result: 35
